# Tested on: LOX IMVI
# assay.notes: NCI tumour cell line growth inhibition, 48 h
The source made the active and inactive calls. Rule as the data show it: active = GI50 up to about 1.1 µM and inactive = higher.
Below: a set of entries, each annotated with reported GI50.

Examples with answers:
Qu. Dear colleague, I am looking for the recorded GI50 of the following molecule: C1=CC2SSSC2C1 (stereo not drawn)
Ans. > 100 µM (inactive)

Qu. Do the same for `Cc1cc(N(CCOS(C)(=O)=O)CCOS(C)(=O)=O)ccc1/C=N/c1ccc(-c2csc(-c3ccccc3)n2)c(Cl)c1` please
Ans. 6.73 µM (inactive)

Others:
Qu. Dear colleague, I am looking for the recorded GI50 of the following molecule: `CC1(C)CC(=O)c2c([nH]c(=S)c(C#N)c2-c2ccc(Br)cc2)C1`
Ans. 57.5 µM (inactive)

Qu. Do the same for `O=C(CO)CC(=O)C(=O)Nc1ccccc1` please
Ans. > 100 µM (inactive)

Qu. Do the same for CC(=O)Nc1ccc2c3c(cc(O)c2c1)N(C(=O)CCCCC(=O)N1CC(CCl)c2c1cc(O)c1cc(NC(C)=O)ccc21)CC3CCl (stereo not drawn) please
Ans. 0.0313 µM (active)

Qu. Do the same for `CN(C)CC/C=C1\c2ccccc2Sc2ccc(Cl)cc21` please
Ans. 13.8 µM (inactive)

Qu. Do the same for `C(=N\N=C1NCCCCN1)/c1ccc2ccccc2c1` please
Ans. 15.7 µM (inactive)

Qu. Do the same for `NN/C(Cc1ccccc1)=N/NC(N)=S` please
Ans. 82.6 µM (inactive)

---

# System: CCRF-CEM
# assay.notes: NCI tumour cell line growth inhibition, 48 h
Active and inactive are the calls of the source. No stated cut-off is given here; in the data, active = GI50 up to about 1.1 µM and inactive = higher. *1 amine or outer side, *2 acyl side, *3 side chain or, on linkers, in order; H or OH if unused. Where a SMILES comes first, the peptide text is derived from it. Bridges are numbered along the chain shown (N, C = ends). [ ]: non-standard residue; d: D form. The star is where a group is joined. X36 = O=C(C(CCCCNO[*:3])N[*:1])[*:2]; Fmoc = O=C(OCC1c2ccccc2-c2ccccc21)*
experimental.readout: GI50

Examples with answers:
Qu. Dear colleague, I am looking for the recorded GI50 of the following compound: `CC(C)(C)OC(=O)N1C[C@H](CC(=O)OCc2ccccc2)C[C@H]1C(=O)OCC(Cl)(Cl)Cl`
Ans. 1.35 µM (inactive)

Qu. Do the same for `O=[N+]([O-])c1cc(Cl)ccc1S(=O)(=O)c1ccc(Cl)cc1[N+](=O)[O-]` please
Ans. 24.1 µM (inactive)

Qu. Do the same for NC(=O)CNC(=O)C1CCCN1C(=O)C1CCCCNOC(=O)CCC(NC(=O)OCC2c3ccccc3-c3ccccc32)C(=O)NC(Cc2c[nH]c3ccccc23)C(=O)N1 (centres undefined) (Fmoc-EW[X36]PG-NH2; ester 1-3; configuration not given here) please
Ans. > 100 µM (inactive)

Others:
Qu. Dear colleague, I am looking for the recorded GI50 of the following compound: `Cc1cc(=O)oc2cc3c(cc12)Oc1ccccc1O3`
Ans. > 10 µM (inactive)

Qu. Do the same for `O=C1C(Cl)=C(Cl)C(=O)C2=C1C1c3ccccc3C2c2ccccc21` please
Ans. 59 µM (inactive)

Qu. Do the same for O=C1CS(=O)(=O)C(c2cccc(Oc3ccccc3)c2)N1c1cccc(Cl)c1 (centres undefined) please
Ans. 26.1 µM (inactive)

Qu. Do the same for Nc1nccc(NCC2(CO)CC(OCc3ccccc3)C2)n1 (centres undefined) please
Ans. > 100 µM (inactive)

Qu. Do the same for `Brc1ccc(-c2nnc(-c3nn(-c4ccccc4)c4nc5ccccc5nc34)o2)cc1` please
Ans. 26.1 µM (inactive)

Qu. Do the same for O=C(CC1C(=O)c2ccccc2C1=C1C(=O)c2ccccc2C1=O)c1ccccc1 (centres undefined) please
Ans. 32 µM (inactive)

Qu. Do the same for `COc1cc2c(c(OC)c1OC)C(=O)[C@H](Br)[C@H]2NC(=O)NCCCl` please
Ans. 23.6 µM (inactive)

Qu. Do the same for `O=C(N/N=C(COc1ccccc1)\N=C\c1ccncc1)c1ccncc1` please
Ans. > 100 µM (inactive)

Qu. Do the same for COc1cc2c3c(c1OC)-c1ccccc1C(C(OC(C)=O)c1ccccc1)C3N(C)CC2 (centres undefined) please
Ans. 25.1 µM (inactive)

Qu. Do the same for `O=C1CCC(=O)N1Cc1ccccc1/N=[N+](\[O-])c1ccccc1CN1C(=O)CCC1=O` please
Ans. > 100 µM (inactive)

Qu. Do the same for Cc1ccccc1C1SCc2nc3ccccc3n21 (centres undefined) please
Ans. > 100 µM (inactive)

Qu. Do the same for `Cc1n[nH]c(=O)n1/N=C/c1ccc(Cl)cc1` please
Ans. 31.1 µM (inactive)

---

# Test system: MCF7
# assay.notes: NCI tumour cell line growth inhibition, 48 h
Where a name gives a salt, the structure may show the parent alone. The source made the active and inactive calls. No stated cut-off is given here; in the data, active = GI50 up to about 1.1 µM and inactive = higher. *1 amine or outer side, *2 acyl side, *3 side chain or, on linkers, in order; H or OH if unused. Where a SMILES comes first, the peptide text is derived from it. Bridges are numbered along the chain shown (N, C = ends). [ ]: non-standard residue; d: D form. The star is where a group is joined. X36 = O=C(C(CCCCNO[*:3])N[*:1])[*:2]; Fmoc = O=C(OCC1c2ccccc2-c2ccccc21)*
Respond with a class label; see 1 for active, 0 for inactive

Worked examples, 3 molecules total:
Qu. For `O=c1oc2ccccc2c(-c2ccc(O)cc2)c1Oc1ccc(Cl)cc1` , what call appears in the results of this test?
Ans. 0

Qu. Do the same for NC(Cc1ccc(S(=O)(=O)O)cc1)C(=O)NC(Cc1ccc(S(=O)(=O)O)cc1)C(=O)NC(Cc1ccc(S(=O)(=O)O)cc1)C(=O)NC(Cc1ccc(S(=O)(=O)O)cc1)C(=O)O (stereo unspecified) please
Ans. 0

Qu. Do the same for NC(=O)CNC(=O)C1CCCN1C(=O)C1CCCCNOC(=O)CCC(NC(=O)OCC2c3ccccc3-c3ccccc32)C(=O)NC(Cc2c[nH]c3ccccc23)C(=O)N1 (stereo unspecified) (Fmoc-EW[X36]PG-NH2; ester 1-3; configuration not given here) please
Ans. 0

Others:
Qu. For `CSC1=N/C(=C\c2ccccc2)C(=O)N1CN1CCOCC1` , what call appears in the results of this test?
Ans. 0

Qu. Do the same for CCCN1C(=O)CC(C)N(Cc2ccccc2Cl)C1=S (stereo unspecified) please
Ans. 0

Qu. Do the same for O=C1CS(=O)(=O)C(c2cccc(Oc3ccccc3)c2)N1c1cccc(Cl)c1 (stereo unspecified) please
Ans. 0

Qu. Do the same for NCCSSCCN [CYSTAMINE HYDROCHLORIDE] please
Ans. 0

Qu. Do the same for `NC(=O)N/N=C1\C[C@H]2CCCC[C@H]2C1` please
Ans. 0

Qu. Do the same for O=C1O[C@H]2[C@H](OC(=O)c3cc(O)c(O)c(O)c3)[C@@H](OC(=O)c3cc(O)c(O)c4c3[C@@H]3C1=CC(=O)C(O)(O)C3(O)O4)[C@H](OC(=O)c1cc(O)c(O)c(O)c1)O[C@@H]2COC(=O)c1cc(O)c(O)c(O)c1 (stereo partly specified) [TERCHEBIN] please
Ans. 0

Qu. Do the same for O=[N+]([O-])c1ccc(N2N=C(c3ccc4ccccc4c3O)CC2c2ccc(Cl)cc2Cl)c([N+](=O)[O-])c1 (stereo unspecified) please
Ans. 0

Qu. Do the same for CN(C(=O)C12C3C4(C(=O)O)C1(C(=O)N(C)C(C)(C)C)C1C2(C(=O)O)C3(C(=O)N(C)C(C)(C)C)C14C(=O)N(C)C(C)(C)C)C(C)(C)C (stereo unspecified) please
Ans. 0

Qu. Do the same for `Nc1ccc2c(SCC(=O)Nc3ccccc3-c3ccccc3NC(=O)CSc3c4ccccc4nc4cc(N)ccc34)c3ccccc3nc2c1` please
Ans. 0

Qu. Do the same for `CC(CCC#N)(CCC#N)C(=O)CC(O)(C(F)(F)F)C(F)(F)F` please
Ans. 0

Qu. Do the same for Cc1cccc(Nc2cc(Cl)nc(SCC(=O)O)n2)c1C [PIRINIXIC ACID] please
Ans. 0

---

Below: a set of entries, each annotated with reported GI50.
# Test system: NCI-H522
# assay.notes: NCI tumour cell line growth inhibition, 48 h
Activity calls are given as the source filed them. Cut-off read from the data, not from the text of the source: active = GI50 up to about 1.1 µM and inactive = higher.

Examples with answers:
Qu. Dear colleague, I am looking for the recorded GI50 of the following compound: COC1=CC(=O)c2c(O)c3c(c(O)c2C1=O)C=C(C)OC3O (configuration not stated)
Ans. 1.45 µM (inactive)

Qu. Do the same for C=C(C)C1CC2C(C)=C(OC(C)=O)C1n1c(=O)c3cc4ccccc4cc3c(=O)n12 (configuration not stated) please
Ans. 51.5 µM (inactive)

Others:
Qu. Dear colleague, I am looking for the recorded GI50 of the following compound: CCCC(=O)NC(Nc1ccc(S(=O)(=O)Nc2cc(C)on2)cc1)(C(=O)OCC)C(F)(F)F (configuration not stated)
Ans. > 100 µM (inactive)

Qu. Do the same for `Cc1nc(N)c(N2CCN([N+](=O)[O-])CC2)c(O)n1` please
Ans. > 100 µM (inactive)

Qu. Do the same for CC(=O)NC(CCCNC(=O)N(CCCl)N=O)C(=O)NCc1ccccc1 (configuration not stated) please
Ans. > 100 µM (inactive)

Qu. Do the same for `O=C(Nc1cccc(-c2cn3ccccc3n2)c1)c1ccncc1` please
Ans. 23.6 µM (inactive)

Qu. Do the same for C[C@@H]1C[C@]2(C[C@@H](C)[C@H]3C(C[C@@]4(C)CCC[C@@H]5C6=C[C@H](CCC34C)OC6=CC(=O)OC5(C)C)O2)OC1=O (some centres not stated) please
Ans. > 51.5 µM (inactive)

Qu. Do the same for `O=C(O)c1c2c(c(O)c3c1CN(C1CCCCC1)CO3)OCN(C1CCCCC1)C2` please
Ans. 29.1 µM (inactive)

Qu. Do the same for Nc1nc2ccc(OCC(O)CN3CCCCC3)cc2[n+]([O-])n1 (configuration not stated) please
Ans. > 100 µM (inactive)

Qu. Do the same for `NCCOCCOCC(=O)O` please
Ans. > 100 µM (inactive)

Qu. Do the same for CN1C(=O)C(O)C[C@@H]1c1ccccc1 (some centres not stated) please
Ans. > 100 µM (inactive)

Qu. Do the same for O=C(CC1C(=O)c2ccccc2C1=C1C(=O)c2ccccc2C1=O)c1ccccc1 (configuration not stated) please
Ans. 19.9 µM (inactive)

Qu. Do the same for `COC(=O)CCCCCOS(=O)(=O)c1ccc(C)cc1` please
Ans. > 100 µM (inactive)

Qu. Do the same for N#CC(C(=O)c1cccnc1Cl)c1nc2cc(C(F)(F)F)ccc2s1 (configuration not stated) please
Ans. 19.8 µM (inactive)

Qu. Do the same for c1ccc2[nH]c(C3CCCCO3)nc2c1 (configuration not stated) please
Ans. > 100 µM (inactive)

Qu. Do the same for CC(C)=NC(C(=O)O)C(C)(C)S (configuration not stated) please
Ans. > 100 µM (inactive)

Qu. Do the same for `C#CCCOC(=O)c1ccccc1OC(C)=O` please
Ans. 63.7 µM (inactive)

Qu. Do the same for `O=C1CCC[C@]2(CCC[C@@H](O)C2)N1` please
Ans. > 100 µM (inactive)

Qu. Do the same for `CC(C)(CO)NC(=O)Nc1c(C(F)(F)F)cc(-c2ccccc2)[nH]c1=O` please
Ans. > 100 µM (inactive)

Qu. Do the same for CC(C(=O)O)c1cnn(-c2ccccc2)c1-n1cccc1 (configuration not stated) please
Ans. > 100 µM (inactive)

Qu. Do the same for CC(C)C1/C(=N/O)CC(c2ccccc2)N(N=O)C1c1ccccc1 (configuration not stated) please
Ans. 37 µM (inactive)

Qu. Do the same for NC(Cc1ccc(S(=O)(=O)O)cc1)C(=O)NC(Cc1ccc(S(=O)(=O)O)cc1)C(=O)NC(Cc1ccc(S(=O)(=O)O)cc1)C(=O)NC(Cc1ccc(S(=O)(=O)O)cc1)C(=O)O (configuration not stated) please
Ans. > 100 µM (inactive)

Source of measurements: ChEMBL document CHEMBL1201862
